- target_or_test_system: SCD (stromelysin-1 catalytic domain) (Homo sapiens, UniProt P08254)
- Construct: SCD (stromelysin-1 catalytic domain)
- Sequence (P08254 100-272 limits assumed): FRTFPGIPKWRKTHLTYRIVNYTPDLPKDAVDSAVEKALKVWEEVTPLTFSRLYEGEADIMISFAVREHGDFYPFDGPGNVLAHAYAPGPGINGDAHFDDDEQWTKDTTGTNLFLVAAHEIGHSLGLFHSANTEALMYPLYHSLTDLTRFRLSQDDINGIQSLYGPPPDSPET
- experiment_summary: Inhibition of stromelysin-1 catalytic domain (SCD), thiopeptolide substrate
- Type: biochemical
- condition_label: thiopeptolide substrate Ac-Pro-Leu-Gly-thioester-Leu-Leu-Gly-OEt
Structures can show the parent of a compound that is named as a salt.
outcome_measure: IC50 (µM)
Give your result in µM as a bare value.

For the molecule "O=C(O)[C@H](Cc1ccccc1)NS(=O)(=O)c1ccc(N2CCN(c3ccccc3)CC2)cc1" , what IC50 is on record? 0.021

And then "O=C(O)[C@H](Cc1ccc(O)cc1)NS(=O)(=O)c1ccc(N2CCC(c3ccccc3)CC2)cc1" , what is it? 0.015

Do the same for "O=C(O)CCNS(=O)(=O)c1ccc(N2CCC(c3ccccc3)CC2)cc1" please 1.24

Consider next the molecule "O=C(O)[C@@H](Cc1ccccc1)NS(=O)(=O)c1ccc(N2CCC(c3ccccc3)CC2)cc1" in the same way. 0.012

Continue with O=C(O)[C@H](Cc1ccccc1)NS(=O)(=O)c1ccc(N2CCN(c3cccc(O)c3)CC2)cc1 [Example 17, hydrobromide] 0.077

Query "O=C(O)[C@H](Cc1ccccc1)NS(=O)(=O)c1ccc(N2CCC(Cc3ccccc3)CC2)cc1" next 0.6

// same read-out, input: O=C(O)C(CCCc1ccccc1)NS(=O)(=O)c1ccc(N2CCC(c3ccccc3)CC2)cc1 (racemic) 0.3

Another: "CC(C)C[C@@H](NS(=O)(=O)c1ccc(N2CCC(c3ccccc3)CC2)cc1)C(=O)O" 0.036

Can you handle "COc1cccc(N2CCN(c3ccc(S(=O)(=O)N[C@@H](Cc4ccccc4)C(=O)O)cc3)CC2)c1" next? 0.062

Can you check "CC(C)C[C@H](NS(=O)(=O)c1ccc(N2CCC(c3ccccc3)CC2)cc1)C(=O)O" next? 0.011

Again, but for "CC(C)CN(CC(=O)O)S(=O)(=O)c1ccc(N2CCC(c3ccccc3)CC2)cc1" 0.17

Would you kindly repeat that for "O=C(O)CNS(=O)(=O)c1ccc(N2CCN(c3ccccc3)CC2)cc1" ? 0.05

# iterate: "O=C(O)[C@H](Cc1c[nH]c2ccccc12)NS(=O)(=O)c1ccc(N2CCC(c3ccccc3)CC2)cc1" 0.01

Same for "O=C(O)[C@H](Cc1ccc(OCc2ccccc2)cc1)NS(=O)(=O)c1ccc(N2CCC(c3ccccc3)CC2)cc1" 0.19
